Listing of entries alongside the reported composite z-score.
assay: binders of probe aFGF2 on microarray, primary screen, stem cell growth factor project, biochemical, small-molecule microarray, fluorescence 635/667 (AID 1067); settings: higher = more signal;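 note: measures binding of biotinylated aFGF2 protein to printed compounds on slides; z-score merges feature fluorescence and signal-to-noise across triplicate slides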
Provide a numeric answer; units are not to be included.

Look over these answered cases.
CC(C)c1ccc(NN2C(C(O)c3cc(C(F)(F)F)cc(C(F)(F)F)c3)C=CC3C(=O)N(c4ccccc4)C(=O)C32)cc1 (centres undefined) : -0.0165
CC(C)c1ccc(NN2C(C(O)C(c3ccccc3)c3ccccc3)C=CC3C(=O)N(c4ccccc4)C(=O)C32)cc1 (centres undefined) : 0.116
COCC(=C=CC[C@H](O)c1ccccc1OCCO)C[C@H](O)c1cc(Cl)cc(Cl)c1O : -0.129
NC(=O)[C@@H]1[C@H]2C(=O)O[C@H](c3ccccc3)[C@H](c3ccccc3)N2[C@H](c2ccc(O)cc2)[C@@]12C(=O)Nc1ccc(C#CC3(O)CCCCCC3)cc12 : 0.0075
CC(C)C[C@@H]1NC(=O)[C@H]2C[C@@H](C(=O)NCCCCCCN)[C@@H](c3ccc(O)cc3)N2C1=O : -0.0212

Challenge: I am curious: what composite z-score value has been reported for O=C1c2ccccc2[C@](Cc2ccccc2I)(C(=O)NC2CC2)[C@H](c2ccc(CO)cc2)N1C1CCCCC1 ?
Response given: -0.0989

Challenge: Same again, this time with COc1ccc(NN2C(C(O)c3ccc([N+](=O)[O-])cc3)C=CC3C(=O)N(C4CCCCC4)C(=O)C32)cc1 (centres undefined)
Response given: -0.0782

Challenge: Same again, this time with O=C1C2C=CC(C(O)c3c(F)cccc3Cl)N(Nc3ccccc3)C2C(=O)N1c1ccccc1 (centres undefined)
Response given: 0.0363

Challenge: Same again, this time with Cc1ccc(C(C)CC(O)C2C=CC3C(=O)N(C)C(=O)C3N2NC(=O)OC(C)(C)C)o1 (centres undefined)
Response given: 0.239

Challenge: Same again, this time with O=C1O[C@H](c2ccccc2)[C@H](c2ccccc2)N2[C@H]1[C@@H](C(=O)Nc1nc3ccccc3s1)[C@]1(C(=O)Nc3ccc(C#CC4(O)CCCCCC4)cc31)[C@H]2c1ccc(OCCO)cc1
Response given: -0.129

----------
Listing of entries alongside the reported z-score.
assay: HepG2 liver cancer cell viability effects, profiling panel, resazurin fluorescence, 24 h, PK04 Diversity Set (AID 1172); conditions: higher = more signal; note: test concentration not given here
Provide a numeric answer; units are not to be included.

COCCOC(=O)N1C(=O)[C@@]2(c3cc(C#CCCO)ccc31)[C@H](c1ccc(OCCO)cc1)N1[C@H](c3ccccc3)[C@H](c3ccccc3)OC(=O)[C@H]1[C@@H]2C(=O)N1CCN(c2ncccn2)CC1 : 0.235
COc1ccc(NN2C(C(O)c3ccc([N+](=O)[O-])cc3)C=CC3C(=O)N(C4CCCCC4)C(=O)C32)cc1 (configuration not stated) : 0.755
C=CCN1C(=O)[C@]2(O[C@H](CCO)[C@@H]([Si](C)(C)c3ccc(OC)cc3)[C@@H]2C)c2cc(N3CCCCC3=O)ccc21 : -3.6
CCOC1=C2C(CN(S(=O)(=O)c3ccc(C)cc3)C2c2ccc(C)cc2)C2C(=O)N(c3ccccc3)C(=O)C2C1 (configuration not stated) : -0.635
CCCC=C(CCC)[C@@H](NC(=O)Oc1ccc(F)cc1)c1ccc(C(=O)OC)cc1 : 1.01
CCCCC(=C=CC[C@@H](O)c1ccccc1OCCO)CCO : -0.202

Please find the next compound below.
Challenge: I am curious: what z-score value has been reported for [N-]=[N+]=Nc1ccccc1[C@H]1OC(c2ccc(OCCCO)cc2)=N[C@@]1(Cc1ccccc1)C(=O)O ?
Response given: 0.615
